# target.of.assay: T1, MMP-26 (human)
# T1 sequence: ASDF
# measurement.description: cell-based or functional assay
property.name: % Inhibition of JEG-3 cell invasion, 25 µg/ml (further test) (%)

>  <binder>
H6-orig (antibody, human IgG4, V domains shown) VH: EVQLLESGGGLVQPGGSLRLSCAASGFTFSQYWMNWVRQAPGKGLEWVSGIGPSGGITYYADSVKGRFTISRDNSKNTLYLQMNSLRAEDTAVYYCARGEEDGYNSDYWGQGTLVTVSS VL: QSELTQPPSASGSPGQSVTISCTGTSSDVGAYNYVSWYQQHPGKAPKLIIYEVNKRPSGVPDRFSASKSGNTASLTVSGLQAEDEADYYCNSYAGSNSLIFGGGTKLTVLG

>  <result>
57

$$$$
